- measurementTarget: PARP1 G558V (UniProt P09874 1-1014, G558V)
- Sequence (P09874 whole entry G558V): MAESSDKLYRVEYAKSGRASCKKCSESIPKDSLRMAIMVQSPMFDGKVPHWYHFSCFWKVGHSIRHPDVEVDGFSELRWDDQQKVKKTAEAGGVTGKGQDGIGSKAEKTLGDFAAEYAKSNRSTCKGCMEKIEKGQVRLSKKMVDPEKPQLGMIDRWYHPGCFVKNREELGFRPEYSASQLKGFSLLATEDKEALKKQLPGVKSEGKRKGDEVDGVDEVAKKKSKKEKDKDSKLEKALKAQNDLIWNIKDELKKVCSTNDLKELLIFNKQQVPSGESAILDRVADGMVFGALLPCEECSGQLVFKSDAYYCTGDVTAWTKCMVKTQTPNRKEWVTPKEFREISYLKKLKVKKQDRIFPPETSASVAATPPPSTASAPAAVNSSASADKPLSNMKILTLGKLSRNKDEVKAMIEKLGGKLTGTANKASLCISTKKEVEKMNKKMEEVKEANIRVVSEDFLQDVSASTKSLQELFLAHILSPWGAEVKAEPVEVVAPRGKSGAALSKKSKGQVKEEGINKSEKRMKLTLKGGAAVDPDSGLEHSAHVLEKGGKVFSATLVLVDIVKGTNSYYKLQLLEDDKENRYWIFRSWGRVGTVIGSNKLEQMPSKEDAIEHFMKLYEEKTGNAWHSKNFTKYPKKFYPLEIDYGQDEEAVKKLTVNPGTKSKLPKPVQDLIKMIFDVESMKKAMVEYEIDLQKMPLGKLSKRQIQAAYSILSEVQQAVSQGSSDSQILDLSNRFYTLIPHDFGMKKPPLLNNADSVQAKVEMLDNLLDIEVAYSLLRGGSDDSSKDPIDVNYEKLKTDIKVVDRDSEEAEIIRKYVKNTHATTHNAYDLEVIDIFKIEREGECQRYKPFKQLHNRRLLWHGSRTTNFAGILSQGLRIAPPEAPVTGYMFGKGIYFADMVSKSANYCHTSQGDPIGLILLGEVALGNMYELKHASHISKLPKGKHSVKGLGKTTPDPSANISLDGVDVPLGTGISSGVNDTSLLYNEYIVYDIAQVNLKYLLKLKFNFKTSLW
- assayInfo: fluorescence polarization
assayMetric: Kd (µM)

[[record]]
binder = "18-bp DSB duplex (dsDNA) DNA 1: GGGTTGCGGCCGCTTGGG DNA 2: CCCAAGCGGCCGCAACCC"
assaymetric = "Kd"
endpointresult = 0.0667

